Entry source: patent US8999981B2

In this section we review reported log10(Ki) values for a set of compounds.
molecular target: Protein Kinase C beta 2 (PKCβII) (Homo sapiens (Human), UniProt P05771)
Sequence (P05771 other isoform, or with tags, fused parts or gaps): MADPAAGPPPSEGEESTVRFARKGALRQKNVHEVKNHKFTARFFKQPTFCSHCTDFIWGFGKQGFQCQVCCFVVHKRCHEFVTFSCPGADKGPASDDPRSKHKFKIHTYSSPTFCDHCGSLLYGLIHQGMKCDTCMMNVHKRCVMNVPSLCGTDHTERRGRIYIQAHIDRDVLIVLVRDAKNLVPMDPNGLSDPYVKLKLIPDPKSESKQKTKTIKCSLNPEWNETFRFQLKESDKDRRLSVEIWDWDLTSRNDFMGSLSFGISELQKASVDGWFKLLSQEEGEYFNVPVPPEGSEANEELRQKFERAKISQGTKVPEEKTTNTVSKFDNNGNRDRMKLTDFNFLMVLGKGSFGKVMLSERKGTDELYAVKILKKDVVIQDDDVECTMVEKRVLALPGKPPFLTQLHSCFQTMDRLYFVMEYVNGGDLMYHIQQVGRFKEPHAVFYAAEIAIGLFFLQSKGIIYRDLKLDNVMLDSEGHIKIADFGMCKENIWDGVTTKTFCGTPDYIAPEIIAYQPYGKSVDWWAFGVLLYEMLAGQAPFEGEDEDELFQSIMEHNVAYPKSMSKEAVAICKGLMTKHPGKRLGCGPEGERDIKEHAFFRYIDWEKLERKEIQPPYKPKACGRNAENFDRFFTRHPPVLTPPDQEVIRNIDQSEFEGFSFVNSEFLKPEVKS
Base-10 log of Ki, unit nM.

[[record]]
compound = "Cc1cnc(C(=O)Nc2n[nH]c3c2CN(C(=O)N2C[C@@H]4CCCN4C[C@@H]2C)C3(C)C)cn1 [Example E2]"
quantity_measured = "log10(Ki)"
observed = 1.86

[[record]]
compound = "C[C@H]1CN2CCC[C@H]2CN1C(=O)N1Cc2c(NC(=O)c3ccccc3F)n[nH]c2C1(C)C [Example A32]"
quantity_measured = "log10(Ki)"
observed = 1.97

[[record]]
compound = "Cc1cc(C(=O)Nc2n[nH]c3c2CN(C(=O)N2C[C@@H]4CCCN4C[C@@H]2C)C3(C)C)nn1C [Example A52]"
quantity_measured = "log10(Ki)"
observed = 2.17

[[record]]
compound = "C[C@H]1CN2CCC[C@H]2CN1C(=O)N1Cc2c(NC(=O)c3ccc4c(c3)CCO4)n[nH]c2C1(C)C [Example A64]"
quantity_measured = "log10(Ki)"
observed = 1.20

[[record]]
compound = "C[C@H]1CN2CCC[C@H]2CN1C(=O)N1Cc2c(NC(=O)c3cscn3)n[nH]c2C1(C)C [Example A44]"
quantity_measured = "log10(Ki)"
observed = 1.64

[[record]]
compound = "CCc1ocnc1C(=O)Nc1n[nH]c2c1CN(C(=O)N1C[C@@H](C)N(CC3CCOCC3)C[C@@H]1C)C2(C)C [Example F15]"
quantity_measured = "log10(Ki)"
observed = 1.72

[[record]]
compound = "C[C@H]1CN2CCC[C@H]2CN1C(=O)N1Cc2c(NC(=O)c3cc(Cl)ccc3F)n[nH]c2C1(C)C [Example A33]"
quantity_measured = "log10(Ki)"
observed = 1.92

[[record]]
compound = "C[C@H]1CN2CCC[C@H]2CN1C(=O)N1Cc2c(NC(=O)c3ccc(F)c(Cl)c3)n[nH]c2C1(C)C [Example A34]"
quantity_measured = "log10(Ki)"
observed = 1.34


// assay Protein Kinase C beta 2 (PKCβII) (Homo sapiens (Human), UniProt P05771), entry CC[C@H](C)[C@H]1CN2C[C@H](O)C[C@H]2CN1C(=O)N1Cc2c(NC(=O)c3ccccn3)n[nH]c2C1(C)C [Example A85] , log10(Ki) value = 1.18

// assay Protein Kinase C beta 2 (PKCβII) (Homo sapiens (Human), UniProt P05771), entry C[C@@H]1CN(C(=O)N2Cc3c(NC(=O)c4ccccn4)n[nH]c3C2(C)C)[C@@H](C)CN1CCCC#N [Example A141] , log10(Ki) value = 1.37

// assay Protein Kinase C beta 2 (PKCβII) (Homo sapiens (Human), UniProt P05771), entry C[C@H]1CN2CCC[C@@H]2CN1C(=O)N1Cc2c(NC(=O)c3ccccn3)n[nH]c2C1(C)C [Example A77] , log10(Ki) value = 1.89

// assay Protein Kinase C beta 2 (PKCβII) (Homo sapiens (Human), UniProt P05771), entry C[C@@H]1CN(C(=O)N2Cc3c(NC(=O)c4ccccn4)n[nH]c3C2(C)C)[C@@H](C)CN1CCOCCO [Example A156] , log10(Ki) value = 2.03

// assay Protein Kinase C beta 2 (PKCβII) (Homo sapiens (Human), UniProt P05771), entry C[C@@H]1CN(C(=O)N2Cc3c(NC(=O)c4ncccn4)n[nH]c3C2(C)C)[C@@H](C)CN1CC1CCOCC1 [Example F58] , log10(Ki) value = 2.12

// assay Protein Kinase C beta 2 (PKCβII) (Homo sapiens (Human), UniProt P05771), entry COc1cc(C(=O)Nc2n[nH]c3c2CN(C(=O)N2C[C@@H]4CCCN4C[C@@H]2C)C3(C)C)ccc1Cl [Example A48] , log10(Ki) value = 1.84

// assay Protein Kinase C beta 2 (PKCβII) (Homo sapiens (Human), UniProt P05771), entry CC1(C)CN2CCC[C@H]2CN1C(=O)N1Cc2c(NC(=O)c3ccccn3)n[nH]c2C1(C)C [Example A81] , log10(Ki) value = 2.10

// assay Protein Kinase C beta 2 (PKCβII) (Homo sapiens (Human), UniProt P05771), entry C[C@H]1CN2CCC[C@H]2CN1C(=O)N1Cc2c(NC(=O)c3ccc(OC(F)(F)F)cc3)n[nH]c2C1(C)C [Example A41] , log10(Ki) value = 1.66

// assay Protein Kinase C beta 2 (PKCβII) (Homo sapiens (Human), UniProt P05771), entry C[C@H]1CN2CCC[C@@]2(C)CN1C(=O)N1Cc2c(NC(=O)c3ccc(F)cn3)n[nH]c2C1(C)C [Example A138] , log10(Ki) value = 1.47

// assay Protein Kinase C beta 2 (PKCβII) (Homo sapiens (Human), UniProt P05771), entry C[C@@H]1CN(C(=O)N2Cc3c(NC(=O)c4cc(C5CC5)n[nH]4)n[nH]c3C2(C)C)[C@@H](C)CN1CC1CCOCC1 [Example F17] , log10(Ki) value = 1.29

// assay Protein Kinase C beta 2 (PKCβII) (Homo sapiens (Human), UniProt P05771), entry C[C@H]1CN2CCC[C@H]2CN1C(=O)N1Cc2c(NC(=O)C3CCCCO3)n[nH]c2C1(C)C (stereo partly shown) [Example A112] , log10(Ki) value = 2.27

// assay Protein Kinase C beta 2 (PKCβII) (Homo sapiens (Human), UniProt P05771), entry Cc1cc(C(=O)Nc2n[nH]c3c2CN(C(=O)N2C[C@@H]4CCCN4C[C@@H]2C)C3(C)C)n(C)n1 [Example A42] , log10(Ki) value = 1.83

// assay Protein Kinase C beta 2 (PKCβII) (Homo sapiens (Human), UniProt P05771), entry CC1CN(C(=O)N2Cc3c(NC(=O)c4ccccn4)n[nH]c3C2(C)C)C(C)CN1CCCO (stereo not shown) [Example A99] , log10(Ki) value = 1.30

// assay Protein Kinase C beta 2 (PKCβII) (Homo sapiens (Human), UniProt P05771), entry C[C@H]1CN2CCC[C@H]2CN1C(=O)N1Cc2c(NC(=O)c3cc(N(C)C)ccn3)n[nH]c2C1(C)C [Example A87] , log10(Ki) value = 1.51

// assay Protein Kinase C beta 2 (PKCβII) (Homo sapiens (Human), UniProt P05771), entry CCn1nc(C)cc1C(=O)Nc1n[nH]c2c1CN(C(=O)N1C[C@@H](C)N(CC3CCOCC3)C[C@@H]1C)C2(C)C [Example F14] , log10(Ki) value = 1.30

---

Values of pKi reported for Protein Kinase C beta 2 (PKCβII) (Homo sapiens (Human), UniProt P05771) appear below.
A value of pKi is the negative decimal logarithm of a concentration given in moles per litre.

The cases that follow already have their pKi on record.
[[record]]
molecule = "COc1cccc(C(=O)Nc2n[nH]c3c2CN(C(=O)N2C[C@@H]4CCCN4C[C@@H]2Cc2ccccc2)C3(C)C)c1"
assayed_target = "Protein Kinase C beta 2 (PKCβII) (Homo sapiens (Human), UniProt P05771)"
observed = 7.79

[[record]]
molecule = "Cc1ncoc1C(=O)Nc1n[nH]c2c1CN(C(=O)N1C[C@@H](C)N(C)C[C@@H]1C)C2(C)C"
assayed_target = "Protein Kinase C beta 2 (PKCβII) (Homo sapiens (Human), UniProt P05771)"
observed = 7.33

[[record]]
molecule = "CN1CCN(C(=O)N2Cc3c(n[nH]c3NC(=O)c3cc4ccccc4s3)C2(C)C)[C@@H](Cc2ccccc2)C1"
assayed_target = "Protein Kinase C beta 2 (PKCβII) (Homo sapiens (Human), UniProt P05771)"
observed = 6.84

[[record]]
molecule = "C[C@H]1CN2CCC[C@H]2CN1C(=O)N1Cc2c(NC(=O)c3ccc(F)c(Cl)c3)n[nH]c2C1(C)C [Example A49]"
assayed_target = "Protein Kinase C beta 2 (PKCβII) (Homo sapiens (Human), UniProt P05771)"
observed = 7.27

[[record]]
molecule = "C[C@@H]1CN(C(=O)N2Cc3c(NC(=O)c4cn(C)cn4)n[nH]c3C2(C)C)[C@@H](C)CN1CC1CCOCC1 [Example F9]"
assayed_target = "Protein Kinase C beta 2 (PKCβII) (Homo sapiens (Human), UniProt P05771)"
observed = 7.20


// assay Protein Kinase C beta 2 (PKCβII) (Homo sapiens (Human), UniProt P05771), entry Cc1nc(C(=O)Nc2n[nH]c3c2CN(C(=O)N2C[C@@H](C)N(C)C[C@@H]2C)C3(C)C)cs1 , pKi value = 7.45

// assay Protein Kinase C beta 2 (PKCβII) (Homo sapiens (Human), UniProt P05771), entry C[C@H]1CN2CCC[C@H]2CN1C(=O)N1Cc2c(NC(=O)c3ccc(C#N)cc3F)n[nH]c2C1(C)C , pKi value = 6.91

---

Values of Ki reported for Protein Kinase C beta 2 (PKCβII) (Homo sapiens (Human)) appear below.
The reply should contain only the number, in nM.

The cases that follow already have their Ki on record.
[[record]]
smiles_repr = "C[C@H]1CN2CCC[C@H]2CN1C(=O)N1Cc2c(NC(=O)c3cc(C(F)(F)F)ccc3F)n[nH]c2C1(C)C"
observed = 176

[[record]]
smiles_repr = "C[C@H]1CN2CCC[C@H]2CN1C(=O)N1Cc2c(NC(=O)c3cc(Cl)ccn3)n[nH]c2C1(C)C"
observed = 21.3


// assay Protein Kinase C beta 2 (PKCβII) (Homo sapiens (Human)), entry C[C@H]1CN2CCC[C@H]2CN1C(=O)N1Cc2c(NC(=O)c3cnc4ccccc4n3)n[nH]c2C1(C)C , Ki value = 12.5

// assay Protein Kinase C beta 2 (PKCβII) (Homo sapiens (Human)), entry Cc1cc(C(=O)Nc2n[nH]c3c2CN(C(=O)N2C[C@@H]4CCCN4C[C@@H]2C)C3(C)C)nc(Cl)n1 , Ki value = 35.3

// assay Protein Kinase C beta 2 (PKCβII) (Homo sapiens (Human)), entry C[C@@H]1CN(C(=O)N2Cc3c(NC(=O)c4cc(C5CC5)on4)n[nH]c3C2(C)C)[C@@H](C)CN1CC1CCOCC1 , Ki value = 29.8

// assay Protein Kinase C beta 2 (PKCβII) (Homo sapiens (Human)), entry C[C@H]1CN2CCC[C@H]2CN1C(=O)N1Cc2c(NC(=O)c3nc4ccccc4s3)n[nH]c2C1(C)C , Ki value = 49.9
